# Test name: NCI Yeast Anticancer Drug Screen. Data for the bub3 strain (AID 167)
# Setup conditions: S. cerevisiae bub3 mutant strain, at 50.0 µM, hits give high values
About 79,000 compounds went through this panel and 15% of them were active in at least one assay; those are over-represented in the sample as a whole.
# growth inhibition annotations

{"Compound": "OC(CC1CCCCN1)c1ccc2c(c1)oc1ccccc12 (configuration not stated)", "growth inhibition, %": 73.8}
{"Compound": "O=C(O)CCC(=O)CCC(=O)c1ccc(O)c2ncccc12", "growth inhibition, %": 16.2}
{"Compound": "CC(=O)Nc1ccc(-c2cn3ccccc3n2)cc1", "growth inhibition, %": 13.7}
{"Compound": "Clc1cc2nc(C3CCCO3)[nH]c2cc1Cl (configuration not stated)", "growth inhibition, %": 19.9}
{"Compound": "C/C(=N/NS(=O)(=O)c1ccc(N)cc1)c1ccccc1", "growth inhibition, %": -41.4}
{"Compound": "CCCCCCC(O)C/C=C\\CCCCCCCCO (configuration not stated)", "growth inhibition, %": 27.1}
{"Compound": "CC(C)(C)c1cc(C(=O)O)ccc1C(=O)O", "growth inhibition, %": -26.4}

---

# Test name: NCI Yeast Anticancer Drug Screen. Data for the bub3 strain (AID 167)
# Setup conditions: S. cerevisiae bub3 mutant strain, at 50.0 µM, hits give high values
# Protocol: Growth inhibition of yeast strains with defined genetic alterations is measured as a screen for potential anti-cancer activity. Selected strains with alterations in DNA damage repair or cell cycle control were exposed to compounds and growth inhibition was measured relative to vehicle treated controls. The strain used in this assay is bub3
This is part of a sample that, as a whole, favours compounds with a hit. Of some 79,000 tested, about 15% had one in any assay.
Cut-off 4% on growth inhibition, inclusive. At or above means Condition met; below means Condition not met.

{"Cpd smiles": "N=C(N)c1nc2ccccc2s1", "Qualitative label": "Condition met"}
{"Cpd smiles": "Clc1ccc(C(Cl)(c2ccc(Cl)cc2)C(Cl)(Cl)Cl)cc1", "Qualitative label": "Condition met"}
{"Cpd smiles": "ON=C1CCN(c2ccccc2)CC1", "Qualitative label": "Condition not met"}
{"Cpd smiles": "Cc1ccn2nnnc2c1", "Qualitative label": "Condition not met"}
{"Cpd smiles": "CCOc1c(OC)ccc(/C(C)=N\\O)c1OCC", "Qualitative label": "Condition met"}
{"Cpd smiles": "O=C(CC(=O)N(C(=O)c1ccccc1)c1ccc(Cl)cc1)N/N=C\\c1ccccc1O", "Qualitative label": "Condition met"}

---

# Test name: NCI Yeast Anticancer Drug Screen. Data for the rad50 strain (AID 155);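 further: 0% = growth of vehicle-only cultures of the same strain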
# Setup conditions: S. cerevisiae rad50 strain growth inhibition; at 50.0 µM; hits give high values
This is part of a sample that, as a whole, favours compounds with a hit. Of some 79,000 tested, about 15% had one in any assay. Where a SMILES comes first, the peptide text is derived from it. [ ]: non-standard residue; d: D form. The star is where a group is joined. Hyp = O=C(O)[CH]1C[CH](O)CN1; Cbz = O=C(OCc1ccccc1)*
Measure name: growth inhibition (%)

{"Compound": "C/C(N=NC(=S)N1CCC(C)CC1)=C1\\C=CC=CN1O", "Readout value": 97.3}
{"Compound": "O=c1cc(-c2ccccc2)[nH]c2[nH]n(-c3ccccc3)c(=O)c12", "Readout value": 8.55}
{"Compound": "CCOCCC12CCCCC1C/C(=N/OC(C)=O)c1ccccc12 (stereo unspecified)", "Readout value": 9.3}
{"Compound": "Cc1cc(=O)c2cccc(-c3ccccc3)c2[nH]1", "Readout value": 19.5}
{"Compound": "CCOc1ccc(/C=C2\\N=C(c3ccccc3)OC2=O)cc1OC", "Readout value": 8.5}
{"Compound": "O=C1CSc2nc3c(I)cc(I)cc3c(=O)n21", "Readout value": 2.65}
{"Compound": "COC(=O)c1c(C)cc(C)c(C(C)=O)c1O", "Readout value": -16.9}
{"Compound": "CCCCCCCCCSCCS", "Readout value": -14.1}
{"Compound": "NC(=O)CNC(=O)C1CC(O)CN1C(=O)C1CCCN1C(=O)OCc1ccccc1 (stereo not drawn) (Cbz-Pro-[Hyp]-Gly-NH2; configuration not given here)", "Readout value": -3.9}
{"Compound": "CCCCOC(=O)/C=C/c1ccc(OC(C)C)cc1", "Readout value": 3.95}
{"Compound": "Cc1ccc(/C(O)=C/C(=O)C(=O)NC23CC4CC(CC(C4)C2)C3)cc1", "Readout value": 36.9}
